Where a name gives a salt, the structure may show the parent alone.
Endpoint Label: melting point (°C)

# annotated cases, reported melting point shown
# Compound, Readout Value
measured = [
    ("COc1cc(OC)cc(N(CC2CC2)c2ccc3ncc(-c4cnn(C5CCNCC5)c4)nc3c2)c1", 90),
    ("COc1cc(O)cc(N(CCCO)c2ccc3ncc(-c4cn[nH]c4)nc3c2)c1", 125),
    ("COc1cc(OC)cc(N(CCNC(C)C)c2ccc3ncc(-c4cnn(CC5CCOCC5)c4)nc3c2)c1 (as salt: HCl)", 166),
    ("COc1cc(OCCO)cc(N(CCCO)c2ccc3ncc(-c4cnn(C)c4)nc3c2)c1", 80),
    ("COc1cc(OC)cc(N(CC2CC2)c2ccc3ncc(-c4cnn(CCCN5CCOCC5)c4)nc3c2)c1", 123.16),
]

(P) COc1cc(OC)cc(N(CCCN2CCC(F)(F)C2)c2ccc3ncc(-c4cn[nH]c4)nc3c2)c1 (as salt: HCl)
(Q) COc1cc(OC)cc(N(Cc2ccc(Cl)s2)c2ccc3ncc(-c4cnn(Cc5ccc(Cl)s5)c4)nc3c2)c1
Between P and Q , which one shows the smaller melting point number? Refer to your chosen item by its label in the answer.
Q
(Q: 131.39 °C, P: 215.29 °C)

(A) COc1cc(OC)cc(N(CC#Cc2cccc(N)n2)c2ccc3ncc(-c4cnn(C)c4)nc3c2)c1
(B) COc1cc(OC)cc(N(CC2CN(Cc3ccccc3)CCO2)c2ccc3ncc(-c4cnn(C)c4)nc3c2)c1 (centres unmarked)
Between A and B , which one shows the smaller melting point number? Refer to your chosen item by its label in the answer.
B

----------
Structures can show the parent of a compound that is named as a salt.
Endpoint Label: melting point (°C)

# annotated cases, reported melting point shown
# Compound, melting point [°C]
rows = [
    ("COc1cc(OC)cc(N(Cc2ccc(Cl)cc2)c2ccc3ncc(-c4cnn(C)c4)nc3c2)c1", 114.12),
    ("CNC(=O)Cn1cc(-c2cnc3ccc(N(CCCNC(C)C)c4cc(OC)cc(OC)c4)cc3n2)cn1 [Compound 615]", 134),
]

(1) COc1cc(OC)cc(N(CCC(=O)N(C)OC)c2ccc3ncc(-c4cnn(C)c4)nc3c2)c1 [Compound 633]
(2) COc1cc(OC)cc(N(Cc2cc[nH]n2)c2ccc3ncc(-c4cnn(C)c4)nc3c2)c1 (as salt: HCl)
Returns: the argument ( 1 or 2 ) having the larger melting point. Refer to your chosen item by its label in the answer.
2
(2: 203 °C, 1: 130 °C)

----------
Counter-ions that a name gives are not always drawn.
Endpoint Label: melting point (°C)

# Compound, melting point, °C
measured = [
    ("COc1cc(OC)cc(N(CC2CC2)c2ccc3ncc(-c4cnn(C(C)(C)C(=O)N5CCNCC5)c4)nc3c2)c1", 127.97),
    ("COc1cc(OC)cc(N(CCNC(C)C)c2ccc3ncc(-c4c(C)nn(C)c4C)nc3c2)c1 (as salt: HCl) [Compound 623]", 133),
    ("COc1cccc(C#CCN(c2cc(OC)cc(OC)c2)c2ccc3ncc(-c4cnn(C)c4)nc3c2)c1", 85),
]

(P) COc1cc(OC)cc(N(CCCn2cc(C)nc2C)c2ccc3ncc(-c4cnn(C)c4)nc3c2)c1 (as salt: HCl)
(Q) [2H]C([2H])([2H])Oc1cc(OC)cc(N(CCNC(C)C)c2ccc3ncc(-c4cn[nH]c4)nc3c2)c1 [Compound 432]
(R) COc1cc(OC)cc(N(CC2CN(C(C)C)CCO2)c2ccc3ncc(-c4cnn(C)c4)nc3c2)c1 (stereo not drawn)
Please list these compounds in decreasing order of melting point. Ranked list of labels, please, in the requested order.
Q, P, R
(Q: 251.77 °C, P: 157 °C, R: 88 °C)

(I) COc1cc(OC)cc(N(CC2CC2)c2ccc3ncc(-c4cnn(CC(=O)NCCN5CCCC5)c4)nc3c2)c1
(II) COc1cc(OC)cc(N(c2ccc3ncc(-c4cnn(C)c4)nc3c2)[C@H]2CC[C@@H](NC(C)C)CC2)c1
Between I and II , which one shows the smaller melting point number? Refer to your chosen item by its label in the answer.
II

(a) Cn1cc(-c2cnc3ccc(N(CC4CC4)c4cccc(OC(F)(F)F)c4)cc3n2)cn1 [Compound 881]
(b) CNCC(O)CN(c1cc(OC)cc(OC)c1)c1ccc2ncc(-c3cnn(C)c3)nc2c1 (stereo not drawn) (as salt: HCl)
Returns: the argument ( a or b ) having the larger melting point. Refer to your chosen item by its label in the answer.
b
(b: 224 °C, a: 156.5 °C)
